Data provenance: paper PMC9106035

- assay-details: Cytotoxic activity on normal cells, MTT viability assay
- Format: cell-based, human
- test-conditions: human, MRC-5 normal lung fibroblast cells; MRC-5; sample conc. 39.1 µM; Table S12
quantity: viability at 24 h, 39.1 µM (%)
Express your answer in %, writing the number without its unit.

Qu. Write down viability at 24 h, 39.1 µM measured for item `CC(=NNc1nc(N2CCOCC2)nc(N2CCOCC2)n1)c1ccccc1O`
Ans. 100

----------
- assay-details: Cytotoxic activity on normal cells, MTT viability assay
- Format: cell-based, human
- test-conditions: human, MRC-5 normal lung fibroblast cells; MRC-5; sample conc. 627.4 µM; Table S10
quantity: viability at 24 h, 627.4 µM

Qu. Write down viability at 24 h, 627.4 µM measured for item `CC(=NNc1nc(N2CCOCC2)nc(N2CCOCC2)n1)c1ccccc1N`
Ans. 53.9%
